The compounds listed here are annotated with their absorption maximum.
assay: solvent given as SMILES; details: in OCCO

COMPOUND: Cc1cc(O)c(C(C)C)cc1/N=C/c1ccc(C(F)(F)F)cc1
absorption maximum (nm): 363
--
COMPOUND: C(=C\c1ccnc2ccccc12)/c1ccc(/C=C/c2ccnc3ccccc23)cc1
absorption maximum (nm): 382
--
COMPOUND: Fc1ccc(-c2nc3n(c2-c2ccncc2)CCS3)cc1
absorption maximum (nm): 330
--
COMPOUND: N#C[Se]CCCCCOc1ccc2ccc(=O)oc2c1
absorption maximum (nm): 326
--
COMPOUND: Cc1cc(O)c(C(C)C)cc1/N=C/c1ccc(O)cc1
absorption maximum (nm): 342
--
COMPOUND: COC(=O)C(Cc1ccc2oc(-c3ccc(N(C)C)cc3)nc2c1)NC(=O)OC(C)(C)C (centres undefined)
absorption maximum (nm): 351.9
--
COMPOUND: COc1cc(/C=C2/SC(=O)NC2=O)ccc1O
absorption maximum (nm): 361
--
COMPOUND: COc1cc(/C=C2/SC(=O)NC2=O)cc(OC)c1O
absorption maximum (nm): 370
--
COMPOUND: Oc1ccccc1/C=N/N=C/c1ccccc1O
absorption maximum (nm): 357
